The entries below are paired with their reported pIC50.
- experimental-system: mTOR (Homo sapiens, UniProt P42345)
- Construct: endogenous in cells; host or cells: Jurkat, clone E6-1 (ATCC TIB-152) cell lysate
- method-summary: mTOR kinobeads assay (competitive binding in Jurkat cell lysate, immunodetection)
- test-parameters: Further Kinobeads Data; read-out: mTor
pIC50: −log10 of the molar value. Structures can show the parent of a compound that is named as a salt.

molecule | result
CCNC(=O)Nc1ccc(-c2nc3c(c(N4CCOCC4)n2)CN(C)C3)c(F)c1 | 6.00 to 7.00

Find the measured pIC50: item `CC(=O)N1Cc2nc(-c3ccc(NC(=O)NC4CC4)cc3F)nc(N3CCOC[C@@H]3C)c2C1` , target or system mTOR (Homo sapiens, UniProt P42345). > 7.00

Also need `CCOC(=O)N1Cc2nc(-c3ccc(NC(=O)NCCF)cc3F)nc(N3CCOCC3)c2C1` , thanks. > 7.00

Also need CCNC(=O)Nc1ccc(-c2nc3c(c(N4CCOCC4)n2)CNC3)c(F)c1 [Example 150, hydrochloride] , thanks. > 7.00

Also need `C[C@@H]1COCCN1c1nc(-c2ccc(NC(=O)NC3CC3)cc2F)nc2c1CN(C(=O)C1CC1)C2` , thanks. > 7.00

Also need `COC(=O)N1Cc2nc(-c3ccc(NC(=O)NC4CC4)cc3F)nc(N3CCOC[C@@H]3C)c2C1` , thanks. 6.00 to 7.00

====

- experimental-system: PI3Kalpha (PI3Ka) (Homo sapiens, UniProt P42336)
- Construct: endogenous in cells; host or cells: cell lysate
- Sequence (P42336 whole entry): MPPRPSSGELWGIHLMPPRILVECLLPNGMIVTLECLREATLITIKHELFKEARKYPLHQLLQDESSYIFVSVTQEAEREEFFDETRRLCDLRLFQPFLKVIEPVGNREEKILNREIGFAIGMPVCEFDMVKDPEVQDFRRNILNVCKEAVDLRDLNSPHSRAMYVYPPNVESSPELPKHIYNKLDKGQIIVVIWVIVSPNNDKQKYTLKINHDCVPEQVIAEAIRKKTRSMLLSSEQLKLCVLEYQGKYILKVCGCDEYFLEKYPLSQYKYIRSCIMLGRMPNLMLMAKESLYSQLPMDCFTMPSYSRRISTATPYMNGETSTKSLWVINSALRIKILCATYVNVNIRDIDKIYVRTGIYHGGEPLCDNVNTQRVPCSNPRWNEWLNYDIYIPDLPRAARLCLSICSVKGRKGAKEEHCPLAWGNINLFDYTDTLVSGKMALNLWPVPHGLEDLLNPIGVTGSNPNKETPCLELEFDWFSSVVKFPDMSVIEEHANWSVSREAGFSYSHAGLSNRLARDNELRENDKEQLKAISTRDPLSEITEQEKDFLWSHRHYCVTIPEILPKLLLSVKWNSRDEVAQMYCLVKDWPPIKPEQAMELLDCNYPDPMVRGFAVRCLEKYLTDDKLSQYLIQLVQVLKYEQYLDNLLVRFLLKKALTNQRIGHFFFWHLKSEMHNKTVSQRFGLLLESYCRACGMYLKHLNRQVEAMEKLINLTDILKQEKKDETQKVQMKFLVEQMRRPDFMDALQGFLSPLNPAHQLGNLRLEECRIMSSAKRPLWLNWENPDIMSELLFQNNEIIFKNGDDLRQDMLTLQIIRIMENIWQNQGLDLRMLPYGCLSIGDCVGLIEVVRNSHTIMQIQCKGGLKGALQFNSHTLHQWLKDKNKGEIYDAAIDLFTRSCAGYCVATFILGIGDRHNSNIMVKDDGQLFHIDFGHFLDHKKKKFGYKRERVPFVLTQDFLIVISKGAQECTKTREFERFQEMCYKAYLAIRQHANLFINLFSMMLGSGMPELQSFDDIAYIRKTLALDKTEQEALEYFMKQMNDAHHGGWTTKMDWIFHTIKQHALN
- Sequence (P27986 whole entry partner): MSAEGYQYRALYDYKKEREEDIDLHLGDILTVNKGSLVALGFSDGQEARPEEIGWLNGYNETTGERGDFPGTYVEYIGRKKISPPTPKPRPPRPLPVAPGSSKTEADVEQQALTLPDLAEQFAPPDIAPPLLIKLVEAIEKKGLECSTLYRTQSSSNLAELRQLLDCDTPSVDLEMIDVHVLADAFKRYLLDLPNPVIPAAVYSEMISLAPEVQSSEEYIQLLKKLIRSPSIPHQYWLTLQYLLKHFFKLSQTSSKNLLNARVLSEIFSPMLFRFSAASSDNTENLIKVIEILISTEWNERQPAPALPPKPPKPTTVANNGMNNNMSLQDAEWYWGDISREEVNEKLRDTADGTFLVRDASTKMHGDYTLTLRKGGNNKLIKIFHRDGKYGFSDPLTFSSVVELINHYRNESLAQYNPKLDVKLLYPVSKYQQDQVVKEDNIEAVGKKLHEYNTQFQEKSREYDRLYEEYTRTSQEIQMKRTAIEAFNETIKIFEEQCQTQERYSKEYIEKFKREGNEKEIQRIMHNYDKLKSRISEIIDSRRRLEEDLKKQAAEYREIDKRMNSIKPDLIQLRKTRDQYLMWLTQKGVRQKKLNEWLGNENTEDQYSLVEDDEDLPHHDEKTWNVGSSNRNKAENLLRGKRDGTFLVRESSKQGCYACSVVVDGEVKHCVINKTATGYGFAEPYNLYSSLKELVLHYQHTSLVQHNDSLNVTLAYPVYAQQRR
- method-summary: kinobeads assay, PI3Kalpha
- Format: binding
- test-parameters: kinobeads assay, Table 6

mol | experimental-system | Inhibition values (IC50) PI3Ka
CCNC(=O)Nc1ccc(-c2nc3c(c(N4CCOC[C@@H]4C)n2)CN(C2CCN(C(C)=O)CC2)C3)cc1F | PI3Kalpha (PI3Ka) (Homo sapiens, UniProt P42336) | D (D >10 μM)
C[C@H]1COCCN1c1nc(-c2ccc(NC(=O)NC3CC3)cc2)nc2c1CCN(CC(C)(C)C)C2 | PI3Kalpha (PI3Ka) (Homo sapiens, UniProt P42336) | D (D >10 μM)
CCOC(=O)N1Cc2nc(-c3ccc(NC(=O)NC4CC4)cc3)nc(N3CCOC[C@@H]3C)c2C1 | PI3Kalpha (PI3Ka) (Homo sapiens, UniProt P42336) | D (D >10 μM)

====

- experimental-system: DNA-dependent protein kinase (DNA-PK) (Homo sapiens, UniProt P78527)
- Construct: endogenous in cells; host or cells: Jurkat, clone E6-1 (ATCC TIB-152) cell lysate
- method-summary: kinobeads assay, DNA-PK
- Format: binding
- test-parameters: Further Kinobeads Data; read-out: DNAPK
pIC50: −log10 of the molar value.
The entries below are paired with their reported pIC50.

compound | endpoint-name | result
C[C@H]1COCCN1c1nc(-c2ccc(NC(=O)NC3CC3)cc2F)nc2c1CCN(C(=O)N(C)C)C2 | pIC50 | < 5.00

Tell me the measured pIC50 of `CCOC(=O)N1Cc2nc(-c3ccc(NC(=O)NC4CC4)cc3F)nc(N3CCOC[C@H]3C)c2C1` , please. < 5.00

Also need CCNC(=O)Nc1ccc(-c2nc3c(c(N4CCOC[C@@H]4C)n2)CNC3)c(F)c1.Cl [Example 158, hydrochloride] , thanks. < 5.00

Also need `CCNC(=O)Nc1ccc(-c2nc3c(c(N4CCOCC4)n2)CN(C(=O)OC(C)(C)C)C3)c(F)c1` , thanks. < 5.00

Also need `C[C@H]1COCCN1c1nc(-c2ccc(NC(=O)NC3CC3)cc2F)nc2c1CN(S(C)(=O)=O)C2` , thanks. < 5.00

Also need `CCNC(=O)Nc1c(F)cc(-c2nc3c(c(N4CCOC[C@@H]4C)n2)CN(C)C3)cc1F` , thanks. < 5.00

Also need `CC(C)N1Cc2nc(-c3ccc(NC(=O)NCCO)cc3F)nc(N3CCOC[C@@H]3C)c2C1` , thanks. < 5.00

====

- experimental-system: PI3K delta (PI3 Kd) (Homo sapiens, UniProt O00329)
- Construct: endogenous in cells; host or cells: Jurkat, clone E6-1 (ATCC TIB-152) cell lysate
- Sequence (O00329 whole entry): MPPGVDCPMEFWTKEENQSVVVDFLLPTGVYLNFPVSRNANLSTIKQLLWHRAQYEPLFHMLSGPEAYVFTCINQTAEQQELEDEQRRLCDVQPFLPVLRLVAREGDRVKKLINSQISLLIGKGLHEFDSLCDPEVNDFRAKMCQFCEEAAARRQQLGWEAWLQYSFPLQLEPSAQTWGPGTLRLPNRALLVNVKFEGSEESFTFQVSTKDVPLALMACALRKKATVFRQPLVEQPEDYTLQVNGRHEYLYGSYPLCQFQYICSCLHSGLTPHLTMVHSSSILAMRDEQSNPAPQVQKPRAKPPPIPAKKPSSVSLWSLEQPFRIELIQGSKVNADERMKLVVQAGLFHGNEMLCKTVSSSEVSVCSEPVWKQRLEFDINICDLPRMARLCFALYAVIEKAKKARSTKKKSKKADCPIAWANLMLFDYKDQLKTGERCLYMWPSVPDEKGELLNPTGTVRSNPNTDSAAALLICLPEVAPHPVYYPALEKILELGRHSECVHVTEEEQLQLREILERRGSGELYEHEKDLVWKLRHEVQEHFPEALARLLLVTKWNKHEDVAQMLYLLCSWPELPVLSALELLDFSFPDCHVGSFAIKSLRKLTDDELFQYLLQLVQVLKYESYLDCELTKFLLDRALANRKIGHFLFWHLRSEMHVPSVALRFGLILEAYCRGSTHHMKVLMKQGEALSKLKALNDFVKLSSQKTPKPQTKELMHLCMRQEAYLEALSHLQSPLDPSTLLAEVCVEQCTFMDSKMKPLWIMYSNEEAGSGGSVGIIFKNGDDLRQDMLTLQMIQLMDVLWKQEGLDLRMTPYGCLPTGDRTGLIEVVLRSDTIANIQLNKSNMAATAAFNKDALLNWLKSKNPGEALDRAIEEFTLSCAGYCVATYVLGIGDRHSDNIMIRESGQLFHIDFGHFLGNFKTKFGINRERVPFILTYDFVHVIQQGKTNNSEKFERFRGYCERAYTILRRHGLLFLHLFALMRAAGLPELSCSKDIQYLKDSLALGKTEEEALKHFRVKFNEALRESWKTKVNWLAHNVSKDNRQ
- Sequence (P27986 whole entry partner): as the sequence (P27986 whole entry partner) above
- method-summary: kinobeads assay, PI3K delta
- Assay type: binding
- test-parameters: kinobeads assay, Table 4; read-out: Inhibition values (IC50) PI3Kd
- Procedure: The compounds of the present invention as described were tested in the mTOR kinobeads assay as described below. […] Bound proteins were then eluted and the presence of mTOR, PI3K delta (PI3 Kd) and DNA-dependent protein kinase (DNA-PK) was detected and quantified using a specific antibody in a dot blot procedure and the Odyssey infrared detection system. […]
pIC50: −log10 of the molar value.
The entries below are paired with their reported pIC50.

mol | pIC50
CCNC(=O)Nc1ccc(-c2nc3c(c(N4CCOC[C@@H]4C)n2)CN(C(=O)c2ccc(F)cc2)C3)cc1 | < 5.00
CCNC(=O)Nc1ccc(-c2nc3c(c(N4CCOC[C@@H]4C)n2)CCN(C(C)=O)C3)cc1 | < 5.00
C[C@H]1COCCN1c1nc(-c2ccc(NC(=O)NC3CC3)cc2)nc2c1CCN(CC1CC1)C2 | < 5.00
CCNC(=O)Nc1ccc(-c2nc3c(c(N4CCOC[C@@H]4C)n2)CN(C(=O)C(C)(C)C)C3)cc1 | < 5.00
CCNC(=O)Nc1ccc(-c2nc3c(c(N4CCOCC4)n2)CNC3)cc1 | 5.00 to 6.00
CCNC(=O)Nc1ccc(-c2nc3c(c(N4CCOC[C@@H]4C)n2)CCN(C(=O)C(C)(C)C)C3)cc1 | < 5.00
C[C@H]1COCCN1c1nc(-c2ccc(NC(N)=O)cc2)nc2c1CN(C=O)C2 | 5.00 to 6.00
C[C@H]1COCCN1c1nc(-c2ccc(NC(=O)NC3CC3)cc2)nc2c1CN(C(=O)C1CC1)C2 | < 5.00

Tell me the measured pIC50 of `CCNC(=O)Nc1ccc(-c2nc3c(c(N4CCOC[C@@H]4C)n2)CN(C)C3)cc1` , please. < 5.00

Also need `C[C@H]1COCCN1c1nc(-c2ccc(NC(=O)NC3CC3)cc2)nc2c1CN(C)C2` , thanks. < 5.00

====

The entries below are paired with their reported pIC50.
- experimental-system: mTOR (Homo sapiens, UniProt P42345)
- Construct: endogenous in cells; host or cells: Jurkat, clone E6-1 (ATCC TIB-152) cell lysate
- method-summary: mTOR kinobeads assay (competitive binding in Jurkat cell lysate, immunodetection)
- test-parameters: kinobeads assay, Table 6; read-out: Inhibition values (IC50) mTOR
pIC50: −log10 of the molar value.

molecule | pIC50
CCOC(=O)N1Cc2nc(-c3ccc(NC(=O)NCCO)c(F)c3)nc(N3CCOC[C@@H]3C)c2C1 [Example 104] | 6.00 to 7.00
C[C@H]1COCCN1c1nc(-c2ccc(NC(=O)NC3CC3)cc2)nc2c1CN(CC(F)(F)F)C2 [Example 101] | 6.00 to 7.00
CCNC(=O)Nc1ccc(-c2nc3c(c(N4CCOC[C@@H]4C)n2)CN(C(C)C)C3)cc1 [Example 74] | > 7.00

// switching to the query molecule
Tell me the measured pIC50 of CC(C)N1CCc2c(nc(-c3ccc(NC(=O)NC4CC4)cc3)nc2N2CCOC[C@@H]2C)C1 [Example 43] , please. > 7.00

====

The entries below are paired with their reported IC50.
- experimental-system: mTOR (Homo sapiens)
- Construct: endogenous in cells; host or cells: Jurkat, clone E6-1 (ATCC TIB-152) cell lysate
- method-summary: mTOR kinobeads assay (competitive binding in Jurkat cell lysate, immunodetection)
- test-parameters: Further Kinobeads Data; read-out: mTor
Counter-ions that a name gives are not always drawn.

molecule | experimental-system | result
CCNC(=O)Nc1ccc(-c2nc3c(c(N4CCOC[C@@H]4C)n2)CNC3)c(F)c1.Cl [Example 158, hydrochloride] | mTOR (Homo sapiens) | < 100 nM
C[C@@H]1COCCN1c1nc(-c2ccc(NC(=O)NC3CC3)cc2F)nc2c1CN(C=O)C2 | mTOR (Homo sapiens) | < 100 nM
CCNC(=O)Nc1ccc(-c2nc3c(c(N4CCOCC4)n2)CN(C(=O)OC(C)(C)C)C3)c(F)c1 | mTOR (Homo sapiens) | 100 to 1000 nM
CCOC(=O)N1Cc2nc(-c3ccc(NC(=O)NCCO)cc3F)nc(N3CCOCC3)c2C1 | mTOR (Homo sapiens) | < 100 nM
CCNC(=O)Nc1ccc(-c2nc3c(c(N4CCOC[C@@H]4C)n2)CN(C)C3)c(F)c1F | mTOR (Homo sapiens) | 1000 to 10000 nM

Tell me the measured IC50 of `C[C@H]1COCCN1c1nc(-c2ccc(NC(=O)NC3CC3)cc2F)nc2c1CN(S(C)(=O)=O)C2` , please. < 100 nM

Also need Cl.O=C(Nc1ccc(-c2nc3c(c(N4CCOCC4)n2)CNC3)c(F)c1)NC1CC1 [Example 148, hydrochloride] , thanks. < 100 nM

Also need C[C@H]1COCCN1c1nc(-c2ccc(NC(=O)NC3CC3)cc2F)nc2c1CNC2 [Example 149, hydrochloride] , thanks. 100 to 1000 nM

Also need `COC(=O)N1Cc2nc(-c3ccc(NC(=O)NCCF)cc3F)nc(N3CCOCC3)c2C1` , thanks. < 100 nM

Also need `C[C@@H]1COCCN1c1nc(-c2ccc(NC(=O)NC3CC3)cc2F)nc2c1CN(C(=O)OC(C)(C)C)C2` , thanks. < 100 nM

Also need `CCNC(=O)Nc1ccc(-c2nc3c(c(N4CCOCC4)n2)CN(C(=O)OC)C3)c(F)c1` , thanks. < 100 nM
